B1: HSP90AB1 (parent)
chain: TLRQKAEADKNDKAVKDLVVLLFE

Variants of: B1
PROTOCOL: protein stability index of a GFP-peptide fusion (GPS, HEK-293T) (PSI 1-6); higher = more stable;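 also: lentivirally expressed fusions sorted by FACS into six bins by GFP to DsRed ratio, PSI derived from sequencing read proportions per bin multiplied by bin number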
TEST_CONDITIONS: c terminus: a fixed tail appended
Reported protein stability index values are given for each entry in this list.
Answer as a number with no unit attached.

- TLRQKAEADKNDKAVKDLVVLLSE [F23S]: 3.95
- TLRQKAEDDKNDKAVKDLVVLLFE [A8D]: 3.57
- TDRQKAEADKNDKAVKDLVVLLFE [L2D]: 3.13
- TLRQKAEADKNDKGVKDLVVLLFE [A14G]: 3.17
- TLRQKAEFDKNDKAVKDLVVLLFE [A8F]: 2.89
- TLRQKAEADDNDKAVKDLVVLLFE [K10D]: 3.11
- TLRQFAEADKNDKAVKDLVVLLFE [K5F]: 2.75
- TLRQKACADKNDKAVKDLVVLLFE [E7C]: 2.28

**Query** Provide one value: measured protein stability index of TLRQKAEADKNDKAVNDLVVLLFE [K16N]
**Result** 3.44

**Query** Provide one value: measured protein stability index of TQRQKAEADKNDKAVKDLVVLLFE [L2Q]
**Result** 3.62

**Query** Provide one value: measured protein stability index of TLRQKAEADKNDKAVKDLVVNLFE [L21N]
**Result** 3.89
